Known IC50, cell viability, T47D cells of a selection of binders
ASSAYED_TARGET: T1, human prolactin receptor (PRLR) (human, UniProt P16471 25-622)
T1 sequence: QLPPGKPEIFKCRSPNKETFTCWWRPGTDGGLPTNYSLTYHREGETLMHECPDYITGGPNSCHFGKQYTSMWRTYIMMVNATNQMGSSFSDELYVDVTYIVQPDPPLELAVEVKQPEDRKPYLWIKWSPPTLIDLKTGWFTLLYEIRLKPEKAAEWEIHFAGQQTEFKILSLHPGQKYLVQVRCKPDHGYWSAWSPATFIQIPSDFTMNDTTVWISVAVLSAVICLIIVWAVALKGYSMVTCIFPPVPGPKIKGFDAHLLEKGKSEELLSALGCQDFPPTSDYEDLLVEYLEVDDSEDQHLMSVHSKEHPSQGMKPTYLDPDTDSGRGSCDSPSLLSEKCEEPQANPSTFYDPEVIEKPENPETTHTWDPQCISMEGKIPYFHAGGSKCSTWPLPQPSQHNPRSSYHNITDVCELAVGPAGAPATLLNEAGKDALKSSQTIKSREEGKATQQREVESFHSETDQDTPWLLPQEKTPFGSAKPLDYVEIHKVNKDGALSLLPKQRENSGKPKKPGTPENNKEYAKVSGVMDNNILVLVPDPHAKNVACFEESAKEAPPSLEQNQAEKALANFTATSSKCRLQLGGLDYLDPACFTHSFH
PROTOCOL_NOTES: cell-based or functional assay

[
  {
    "BINDER": "H1H6793P-DM1 (antibody, human IgG1, V domains shown, DM1 conjugated through SMCC linker; attachment residues not stated) VH: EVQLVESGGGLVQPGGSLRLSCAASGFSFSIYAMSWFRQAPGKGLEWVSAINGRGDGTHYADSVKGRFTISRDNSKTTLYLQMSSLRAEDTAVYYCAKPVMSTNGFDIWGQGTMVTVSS VL: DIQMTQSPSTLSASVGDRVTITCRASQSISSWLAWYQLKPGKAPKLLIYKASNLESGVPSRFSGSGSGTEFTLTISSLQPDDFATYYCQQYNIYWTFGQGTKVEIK",
    "IC50, cell viability, T47D cells / nM": 11.1
  },
  {
    "BINDER": "H1H6953N-DM1 (antibody, human IgG1, V domains shown, DM1 conjugated through SMCC linker; attachment residues not stated) VH: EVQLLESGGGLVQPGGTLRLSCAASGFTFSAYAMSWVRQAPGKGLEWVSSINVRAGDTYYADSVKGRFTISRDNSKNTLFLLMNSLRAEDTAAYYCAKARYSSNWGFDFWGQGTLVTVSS VL: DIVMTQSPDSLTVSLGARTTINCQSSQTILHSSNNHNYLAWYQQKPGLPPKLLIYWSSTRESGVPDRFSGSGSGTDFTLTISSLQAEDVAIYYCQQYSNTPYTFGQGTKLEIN",
    "IC50, cell viability, T47D cells / nM": 1.64
  },
  {
    "BINDER": "H1H6782P-DM1 (antibody, human IgG1, V domains shown, DM1 conjugated through SMCC linker; attachment residues not stated) VH: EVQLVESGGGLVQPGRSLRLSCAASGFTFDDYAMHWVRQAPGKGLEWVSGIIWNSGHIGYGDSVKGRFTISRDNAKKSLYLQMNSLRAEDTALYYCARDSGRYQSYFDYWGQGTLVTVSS VL: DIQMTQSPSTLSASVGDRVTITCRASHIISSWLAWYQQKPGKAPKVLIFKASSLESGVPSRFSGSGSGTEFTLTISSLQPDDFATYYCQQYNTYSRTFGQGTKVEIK",
    "IC50, cell viability, T47D cells / nM": 4.19
  }
]
